# ASSAYED TARGET: D(1A) dopamine receptor (Homo sapiens)
# ASSAY METHOD TEXT: Antagonist of Human D 1 Dopamine Receptor: qHTS; also: % is scaled to controls: 0 for no effect and ±100 for the full control effect
# ASSAY SETUP: HEK293 TREx D1 cells, calcium flux, dopamine EC80; at 10 µM
# Description: Dopamine receptors (DARs) are involved in the etiology and/or therapy of a number of neuropsychiatric and endocrine disorders. […] Freshly passaged cells are plated in 1536 well black, clear bottom plates at a density of 4000 cells/well in 3 ul of complete media containing 1x tetracycline inducer. […] Agonist read: A 10 cycle (1 second/cycle) baseline measurement is taken and then the FDSS online 1536 pintool delivers 23 nl of compound library (as well as dopamine controls) to the plate. […]
The whole screen tested about 360,000 compounds, of which about 11,000 (3.1%) were called active. Rule as the data show it: active = activity change below about -30%; inactive = the rest. The sample holds actives, similar compounds and a random draw of the others, so the mix is not that of the screen.
Please reply with one of these outcomes: 1 = active, 0 = inactive

Query :: Give the logged outcome of this assay for the following molecule: "O=C(Nc1cc(C(F)(F)F)ccc1Cl)c1ccc2c(c1)CCN2S(=O)(=O)c1ccccc1"
Result :: 0

Query :: Just curious, what result did "Cc1ccc2onc(CC(=O)N3CCN(c4ccc(Cl)cc4)CC3)c2c1" get here?
Result :: 0

Query :: What call does the record list for "O=C(COc1ccc(Cl)cc1)Nc1ccc(-c2nc3cc(Cl)ccc3o2)c(O)c1" ?
Result :: 0

Query :: Look up the recorded call for "CCOc1cccc(CNC(=O)c2ccc(N3CCCC3)c(NC(=O)Nc3ccccc3CC)c2)c1" in this test.
Result :: 0

Query :: Any idea what this test logged for "O=S(=O)(Nc1cc(S(=O)(=O)N2CCOCC2)ccc1N1CCCC1)c1cccs1" ?
Result :: 0

Query :: Test call, this molecule: O=C1CCCc2cc(S(=O)(=O)N3CCCC(C(=O)NCc4ccccc4)C3)ccc2N1 (stereo not drawn)
Result :: 0

Query :: For this molecule, state the assay outcome: "Cc1nnc(SCc2cc(=O)c3cc(F)ccc3[nH]2)n1C"
Result :: 1

Query :: Check the results log: what was the call for "CC(C)n1ncc2c(C(=O)Nc3ccc(CC#N)cc3)cc(C3CC3)nc21" ?
Result :: 0

Query :: Recorded test outcome, item "CC(C)CNc1ncnc2c1cnn2Cc1ccc(Cl)cc1"
Result :: 0

Query :: Tell me the recorded outcome of this test for "Cc1ccc(S(=O)(=O)N(CC(=O)NCc2ccco2)c2ccccc2C)cc1" .
Result :: 1

Query :: Dear all, I need the recorded test outcome for "Cc1ccc(Cl)cc1NC(=O)CSc1nc2ccccc2nc1Cc1ccccc1" , thank you.
Result :: 0

Query :: Hey, what did the test say about "CCN1CCN(c2ncnc3c2cnn3-c2ccc(C)c(C)c2)CC1" ?
Result :: 0

Query :: Which outcome was assigned to "COc1cc2c(=O)c(S(=O)(=O)c3ccc(C(C)C)cc3)cn(Cc3ccccc3C)c2cc1OC" in this test?
Result :: 0

Query :: Hi, do you know how COc1ccc2cc(C(=O)NCC3CCCO3)[nH]c2c1 (stereo not drawn) came out in this test?
Result :: 0

Query :: In this assay, the call recorded for "Cn1c(SCc2ccc(F)cc2)nnc1-c1ccncc1" was what?
Result :: 0

Query :: Name the outcome recorded for "O=c1cc(CSc2ncn[nH]2)[nH]c2ccc(F)cc12" in the assay.
Result :: 0

Query :: Hi, do you know how "CCN(CC(=O)NCc1ccco1)S(=O)(=O)c1ccc(F)cc1" came out in this test?
Result :: 0

Query :: Recorded test outcome, item "O=C(c1ccc2c(c1)N(Cc1ccccc1)C(=O)c1ccccc1S2(=O)=O)N1CCC(Cc2ccccc2)CC1"
Result :: 0

Query :: Record request — test call for Cc1ccc(CCNC(=O)c2ccc3c(c2)N(Cc2cc(C)ccc2C)C(=O)c2ccccc2S3=O)cc1 (stereo not drawn)
Result :: 0

Query :: Record request — test call for "COc1ccc(OC)c(NC(=O)Cn2c(=O)n(Cc3ccccc3)c(=O)c3ccccc32)c1"
Result :: 0

Query :: What call does the record list for "CN(C)c1ccc(-n2cccc2/C=C2/SC(=Nc3ccc(F)cc3)NC2=O)cc1" ?
Result :: 1

Query :: How was COc1cc(OC)c(NC(=O)N2CC3CCCN3c3ccccc32)cc1Cl (stereo not drawn) classified in this test?
Result :: 0

Query :: Test call for this molecule, please: "Cc1ccc(Cn2ncc3c4sc(C)cc4n(C)c3c2=O)c(C)c1"
Result :: 0

Query :: Could you check what this test reported for "CC(=O)c1cccc(NC(=O)c2nc(-c3ccccc3)n(-c3cccc(C)c3)n2)c1" ?
Result :: 0

Query :: Please share the test call associated with Cc1ccc2c(c1)N(CC(=O)NCC1CCCO1)C(=O)CO2 (stereo not drawn) .
Result :: 0

Query :: What classification did "CCc1cc2c(cc3c(=O)n(CC(=O)N4CCN(c5cc(Cl)ccc5C)CC4)ncn32)s1" end up with in this test?
Result :: 0

Query :: Please indicate how the test categorized "O=C(Nc1c2c(nn1-c1cccc(Cl)c1)CS(=O)(=O)C2)c1cccs1" .
Result :: 0

Query :: In this assay, the call recorded for "Cc1ccc(N=C2NC(=O)/C(=C/C=C/c3ccco3)S2)cc1C" was what?
Result :: 0

Query :: Which outcome was entered for the molecule Cc1ccc(-n2c(C)cc(/C=C(\C#N)C(=O)NCC3CCCO3)c2C)cc1 (stereo not drawn) in this test?
Result :: 1

Query :: So what was the verdict on "COc1ccc2c(c1)Cc1sc(NC(=O)c3ccccc3Br)nc1-2" in this test?
Result :: 0

Query :: Assay result, entry "CN(C)c1ccc(-n2cccc2/C=N/n2cnnc2)cc1" — outcome?
Result :: 0

Query :: Recorded test outcome, item COc1ccc(OC)c(NC(=O)C2CCCN(S(=O)(=O)c3ccc4c(c3)CCCC(=O)N4)C2)c1 (stereo not drawn)
Result :: 1

Query :: Each molecule tested received a call. Report the one for "Cc1ccc(-n2ncc3c(NCCCn4ccnc4)ncnc32)cc1Cl" .
Result :: 1

Query :: Which result was noted for this molecule in the test: Cc1ccc(NC(=O)CN2C(=O)CC(C)Sc3ccccc32)c(C)c1 (stereo not drawn)
Result :: 0

Query :: Check the results log: what was the call for "CCN(CC)S(=O)(=O)c1nnc(NC(=O)COc2ccccc2Cl)s1" ?
Result :: 0

Query :: Would you mind telling me which call this test gave "COC(=O)c1sc2ncccc2c1-n1c(C)ccc1C" ?
Result :: 0

Query :: Field: outcome | Entry: "COc1cc(OC)c(NC(=O)c2cc(S(=O)(=O)N3CCCC3)cn2C)cc1Cl"
Result :: 0

Query :: Per the records of this test, what outcome belongs to "CC(C)n1ncc2c(C(=O)NCc3ccccc3CN(C)C)cc(C3CC3)nc21" ?
Result :: 1

Query :: Recorded test outcome, item "CCN(CC)S(=O)(=O)c1ccc(N2CCCC2)c(NS(=O)(=O)c2cccs2)c1"
Result :: 1

Query :: For this molecule, state the assay outcome: "CC(C)(C)n1nc2c(c1NC(=O)c1cc3ccccc3o1)CSC2"
Result :: 0

Query :: # lookup: test call for "Oc1ccccc1-c1nc(/C=C/c2ccc(F)cc2)no1"
Result :: 0

Query :: Call for entry "Cc1ccc(Cl)cc1-n1ncc2c(N3CCC(C(N)=O)CC3)ncnc21" :
Result :: 0

Query :: Hey, what did the test say about "CCc1ccc(N(CC)C(=O)CCn2cnc3onc(-c4ccc(F)cc4)c3c2=O)cc1" ?
Result :: 0
